Tested on: CP217
ASSAY_TEXT: qHTS profiling for inhibitors of Plasmodium falciparum proliferation (AID 504749); further: nearly all actives have a fitted effect of over 60% in size
REPORTED_CONDITIONS: P. falciparum in erythrocytes, SYBR Green DNA, 72 h; series mostly up to 28.7 µM
Inconclusive results are not listed. Calls of active or inactive are those of the source. The call rests on the fitted dose curve; in most records, active means well fitted inhibition curve with a large enough effect; inconclusive means small, poorly fitted or top-dose-only effect; inactive means flat fitted curve, though single readings scatter.
Classes used: active, inactive

1. CC(=O)O[C@H]1CC[C@@]2(C)C(=CC[C@@H]3[C@H]2CC[C@]2(C)C(=O)CC[C@H]32)C1 = inactive
2. O=[As]O[As]=O (configuration not stated) = active
3. C[C@H](N)[C@@H](O)c1ccccc1 = inactive
4. CC(C)c1c(CN(C)[C@@H](C)Cc2ccccc2)n(C)n(-c2ccccc2)c1=O = inactive
5. C[C@@]12CCC(=O)C=C1C=C[C@H]1[C@H]3CC[C@](O)(CCC(=O)O)[C@]3(C)CC[C@@H]12 = inactive
6. C[C@@H]1O[C@H](O[C@@H]2C=C3CC[C@H]4[C@@H](CC[C@]5(C)[C@@H](c6ccc(=O)oc6)CC[C@]45O)[C@@]3(C)CC2)[C@@H](O)[C@H](O)[C@@H]1O = inactive
7. CCC(C)C1O[C@]2(C=CC1C)CC1CC(C/C=C(\C)[C@H](OC3CC(OC)C(O[C@H]4CC(OC)[C@@H](O)C(C)O4)C(C)O3)[C@@H](C)/C=C/C=C3\COC4C(O)C(C)=C[C@H](C(=O)O1)[C@@]34O)O2 (some centres not stated) = active
8. CNC(C)[C@@H](O)c1ccc(O)cc1 (some centres not stated) = inactive
9. C=CC1CN2CCC1CC2C(OC(=O)OCC)c1ccnc2ccc(OC)cc12 (configuration not stated) = active
10. Clc1ccc([C@@H](OCCN2CCCCC2)c2ccccc2)cc1 = inactive
11. ClC1=C(Cl)C2(Cl)C3C4CC(C5OC45)C3C1(Cl)C2(Cl)Cl (configuration not stated) = inactive
12. CN(C)[C@@H]1C(=O)C(C(N)=O)=C(O)[C@]2(O)C(=O)C3=C(O)c4c(O)ccc(Cl)c4[C@](C)(O)[C@H]3C[C@@H]12 = inactive
13. COc1cc(N)c(Cl)cc1C(=O)N[C@@H]1CN2CCC1CC2 = inactive
14. CC(=O)OC1C[C@H](O[C@@H]2C(O)C[C@H](O[C@@H]3C(O)C[C@@H](OC4CC[C@]5(C)C(CCC6C5CC(O)[C@@]5(C)C(C7=CC(=O)OC7)CC[C@@]65O)C4)OC3C)OC2C)O[C@H](C)[C@H]1O[C@H]1OC(CO)C(O)C(O)C1O (some centres not stated) = inactive
15. CNC(C)[C@@H](O)c1ccccc1 (some centres not stated) = inactive
16. C[N+]1([O-])[C@@H]2CC(OC(=O)[C@@H](CO)c3ccccc3)C[C@@H]1[C@H]1O[C@H]12 (some centres not stated) = inactive
17. NCC[C@H](O)C(=O)N[C@H]1C[C@@H](N)[C@@H](O[C@H]2O[C@@H](CN)[C@@H](O)[C@@H](O)[C@@H]2N)[C@@H](O[C@H]2O[C@@H](CO)[C@@H](O)[C@@H]2O)[C@@H]1O = inactive

###

STUDY_SYSTEM: Cytochrome P450 3A4 (Homo sapiens) (UniProt P08684)
Sequence (P08684 whole entry, looked up): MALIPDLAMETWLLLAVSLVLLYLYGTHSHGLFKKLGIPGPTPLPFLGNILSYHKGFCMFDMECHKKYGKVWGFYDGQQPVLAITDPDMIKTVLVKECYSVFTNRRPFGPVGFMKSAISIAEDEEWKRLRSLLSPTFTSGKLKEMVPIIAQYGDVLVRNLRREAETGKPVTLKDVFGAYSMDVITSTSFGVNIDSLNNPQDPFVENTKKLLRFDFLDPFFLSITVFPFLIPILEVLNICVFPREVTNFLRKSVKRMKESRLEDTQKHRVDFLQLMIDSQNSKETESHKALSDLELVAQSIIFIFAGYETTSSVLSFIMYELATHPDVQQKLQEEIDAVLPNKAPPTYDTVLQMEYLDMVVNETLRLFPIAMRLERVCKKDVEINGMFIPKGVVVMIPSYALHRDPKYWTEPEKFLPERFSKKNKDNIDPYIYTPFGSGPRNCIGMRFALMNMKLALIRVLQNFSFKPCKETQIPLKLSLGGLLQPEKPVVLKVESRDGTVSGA
ASSAY_TEXT: qHTS Assay for Inhibitors and Substrates of Cytochrome P450 3A4 (AID 884); further: nearly all actives have a fitted effect of over 50% in size
REPORTED_CONDITIONS: recombinant CYP3A4, Luciferin-PPXE luminescence; series mostly up to 57.1 µM
Inconclusive results are not listed. Calls of active or inactive are those of the source. Calls come from the whole dose curve; as a rule, active = well fitted inhibition curve with a large enough effect; inconclusive = small, poorly fitted or top-dose-only effect; inactive = no such curve, though single readings can be large or run the other way.
Possible outcomes: 1 for active, 0 for inactive

1. COc1cc(C2c3cc4c(cc3C(O)C3COC(=O)C23)OCO4)cc(OC)c1O (centres undefined) = 1
2. CC(=O)Oc1ccc(Cl)c2cccnc12 = 0
3. CCN1C[C@]2(COC)C(O)C[C@H](OC)[C@@]34C5C[C@]6(O)C(OC)C(O)[C@](OC(C)=O)(C5C6OC(=O)c5ccccc5)C(C(OC)C23)C14 (some centres undefined) = 0
4. CCN1C[C@@]2(OC(=O)c3ccccc3NC(C)=O)CCC(OC)[C@@]34C5CC6C(OC)C[C@@](O)(C(CC23)[C@@H]14)C5(O)C6OC (some centres undefined) = 0
